The entries below are paired with their reported Mean, FL2-H.
Molecular target: GPC3 on the surface of hepatic cancer cell lines (SK-Hep1-GPC3 transfectant, HepG2, Huh7, Hep3B, SNU398) (human) (UniProt P51654)
Assay: FACS, SK-Hep1-GPC3 #9 cells, 1 ug antibody; upper right panel
// return a plain number; no unit text

Example entries begin here.
1) clone GS015 (scFv, V domains shown) VH: EVQLLESGGGLAQPGGSLRLSCAASGFTFSDYSMSWVRQAPGKGLEWVSAISPDGGSKYYADSVKGRFTISRDNSKNTLYLQMNSLRAEDTAVYYCARFRVIKLRAGWYSANGMDVWGQGTLVTVSS VL: QSVLTQPPSASGTPGQRVTISCSGSSSNIGNNDVSWYQQLPGTAPKLLIYYNSKRPSGVPDRFSGSKSGTSASLAISGLRSEDEADYYCGAWDDSLNGYVFGGGTKLTVLG | 5.34
2) clone GS006 (scFv, V domains shown) VH: EVQLLESGGGLVQPGGSLRLSCAASGFTFSGYSMSWVRQAPGKGLEWVSAISPGGGSKYYADSVRGRFTVSRDNSKNTLYLQMNSLRAEDTAVYYCARYRVQKSAKNVYSSNGMDVWGQGTLVTVSS VL: QSVLTQPPPASGTPGQRVTISCSGSSSNIGNNAVNWYQQLPGTAPKLLIYYDSNRPSGVPDRFSGSKSGTSASLAISGLRSEDEADYYCGAWDSSLSAYVFGGGTKLTVLG | 3.65

Inquiry: Reported Mean, FL2-H for clone GS014 (scFv, V domains shown) VH: EVQLLESGGGLVQPGGSLRLSCAASGFTFSNYAMSWVRQAPGKGLEWVSVISPNSGSNTYYADSVKGRFTISRDNSKNTLYLQMNSLRAEDTAVYYCARPRILRRRVDHSYSYAMDVWGQGTLVTVSS VL: QSVLTQPPSASGTPGQRVTISCTGSSSNIGNNYVSWYQQLPGTAPKLLIYSNSHRPSGVPDRFSGSKSGTSASLAISGLRSEDEADYYCGTWDYSLSGYVLGGGTKLTVLG : what is it?
Reply text: 4.39
